Taken from patent US11584714B2.

- ASSAY_SYSTEM: MASP-2 (CCP1-CCP2-SP) (Homo sapiens (Human), UniProt O00187)
- Sequence (O00187 445-686): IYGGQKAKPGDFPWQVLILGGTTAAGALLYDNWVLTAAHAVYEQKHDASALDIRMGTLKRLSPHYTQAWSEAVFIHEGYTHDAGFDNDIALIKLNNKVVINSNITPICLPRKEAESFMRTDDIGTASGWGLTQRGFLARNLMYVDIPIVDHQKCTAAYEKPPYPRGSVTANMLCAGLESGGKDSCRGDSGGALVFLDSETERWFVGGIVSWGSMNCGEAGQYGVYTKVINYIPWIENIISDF
- ASSAY_EXPLANATION: biochemical
- Format: biochemical
- CONDITION_DESCRIPTION: selectivity for MASP-2 inhibition versus thrombin
Where a name gives a salt, the structure may show the parent alone.
MEASURED_ENDPOINT: MASP-2 vs. thrombin selectivity

Here's what some known entries look like.
COMPOUND | MASP-2 vs. thrombin selectivity
Cc1nc(N)ccc1CNC(=O)[C@H](C)NC(=O)[C@H]1C[C@H](Cc2ccccc2-c2ccccc2)CN1 [compound 1373, Di-trifluoroacetate salt] | *** (≥25 to <100-fold)
C[C@H](NC(=O)[C@@H](CCc1ccccc1)NCCCc1cccc(O)c1)C(=O)NCc1ccc(C(=N)N)cc1 [compound 1312, Di-trifluoroacetate salt] | * (≥1.0 to <5.0-fold)
Cc1cc(CNC(=O)[C@H](C)NC(=O)[C@H](N)CCc2ccccc2)cnc1N [compound 1244] | ** (≥5.0 to <25-fold)
Cc1cc(Cl)cc(CNC(=O)[C@H](C)NC(=O)[C@H]2C[C@@H](c3ccccc3)CCN2)c1O [compound 1365, Hydrochloride] | **** (≥100-fold)
Cc1nc(N)ccc1CNC(=O)[C@H](C)NC(=O)[C@H]1C[C@H](Cc2cccc(C(F)(F)F)c2)C(=O)N1 [compound 1320, Di-trifluoroacetate salt] | ** (≥5.0 to <25-fold)

I would be grateful if you could share the reported MASP-2 vs. thrombin selectivity for Cc1nc(N)ccc1CNC(=O)[C@H](C)NC(=O)[C@H]1C[C@H](Cc2cccc3ccccc23)CN1 [compound 1324, Di-trifluoroacetate salt] .
*** (≥25 to <100-fold)

I would be grateful if you could share the reported MASP-2 vs. thrombin selectivity for Cc1nc(N)ccc1CNC(=O)[C@H](C)NC(=O)[C@H]1C[C@H](Cc2ccc(Cl)c(Cl)c2)CN1 [compound 1422, Dihydrochloride] .
**** (≥100-fold)

I would be grateful if you could share the reported MASP-2 vs. thrombin selectivity for Cc1nc(N)ccc1CNC(=O)[C@H](C)NC(=O)[C@H]1C[C@H](Cc2ccc(C3CCC3)cc2)CN1 [compound 1379, Di-trifluoroacetate salt] .
**** (≥100-fold)

I would be grateful if you could share the reported MASP-2 vs. thrombin selectivity for C[C@H](NC(=O)[C@H]1C[C@H](Cc2cccc3ccccc23)CN1)C(=O)NCc1cnc2[nH]cc(Cl)c2c1 [compound 1415, Hydrochloride] .
* (≥1.0 to <5.0-fold)

I would be grateful if you could share the reported MASP-2 vs. thrombin selectivity for Cc1nc(N)ccc1CNC(=O)[C@@H]1CCCN1C(=O)[C@H]1C[C@H](Cc2ccc(Br)cc2)CN1 [compound 1465, Di-trifluoroacetate salt] .
* (≥1.0 to <5.0-fold)

I would be grateful if you could share the reported MASP-2 vs. thrombin selectivity for Cc1ccc(-c2c[nH]c(C(=O)N[C@@H](C)C(=O)NCc3ccc(C(=N)N)cc3)c2)cc1F [compound 1235] .
*** (≥25 to <100-fold)

I would be grateful if you could share the reported MASP-2 vs. thrombin selectivity for Cc1nc(N)ccc1CNC(=O)[C@H](C)NC(=O)[C@H]1C[C@H](Oc2ccccc2)CN1 [compound 1446] .
**** (≥100-fold)

I would be grateful if you could share the reported MASP-2 vs. thrombin selectivity for C[C@H](NC(=O)[C@H](N)CCc1ccccc1)C(=O)NCc1cnc(N)c(Cl)c1 [compound 1275] .
*** (≥25 to <100-fold)

====

- ASSAY_SYSTEM: UniProt:P00734
- ASSAY_EXPLANATION: Enzymatic assay for thrombin (Boc-VPR-AMC substrate)
- Type: biochemical
- CONDITION_DESCRIPTION: Thrombin Ki (μM)
Counter-ions that a name gives are not always drawn.
Catalogue of Ki values

Here's what some known entries look like.
COMPOUND | Ki
C[C@H](NC(=O)[C@H]1C[C@H](Cc2ccc3ccccc3c2)CN1)C(=O)NCc1cnc2[nH]cc(Cl)c2c1 [compound 1392, Di-Trifluoroacetate salt] | 0.5 to 2.5 µM
Cc1nc(N)ccc1CNC(=O)[C@H](C)NC(=O)[C@H]1C[C@H](Cc2ccc(C#N)c3ccccc23)CN1 [compound 1431, Dihydrochloride] | 10 to 25 µM

I would be grateful if you could share the reported Ki for C[C@H](NC(=O)[C@H]1C[C@H](c2ccccc2)CN1)C(=O)NCc1cc(Cl)ccc1O .
2.5 to 10 µM

I would be grateful if you could share the reported Ki for C[C@H](NC(=O)[C@H](N)CCc1ccccc1)C(=O)NCc1cc(Cl)ccc1-n1cncn1 .
0.5 to 2.5 µM

I would be grateful if you could share the reported Ki for Cc1nc(N)ccc1CNC(=O)[C@H](C)NC(=O)[C@H]1C[C@H](Cc2ccc3nsnc3c2)CN1 [compound 1449, Di-trifluoroacetate salt] .
2.5 to 10 µM

I would be grateful if you could share the reported Ki for Cc1nc(N)ccc1CNC(=O)[C@H](C)NC(=O)[C@H]1C[C@H](Cc2cc(Cl)cc3ccccc23)CN1 [compound 1432, Dihydrochloride] .
10 to 25 µM

====

Catalogue of Ki values
- ASSAY_SYSTEM: mMASP-2 (Mus musculus (Mouse), UniProt Q91WP0)
- Sequence (Q91WP0 20-685): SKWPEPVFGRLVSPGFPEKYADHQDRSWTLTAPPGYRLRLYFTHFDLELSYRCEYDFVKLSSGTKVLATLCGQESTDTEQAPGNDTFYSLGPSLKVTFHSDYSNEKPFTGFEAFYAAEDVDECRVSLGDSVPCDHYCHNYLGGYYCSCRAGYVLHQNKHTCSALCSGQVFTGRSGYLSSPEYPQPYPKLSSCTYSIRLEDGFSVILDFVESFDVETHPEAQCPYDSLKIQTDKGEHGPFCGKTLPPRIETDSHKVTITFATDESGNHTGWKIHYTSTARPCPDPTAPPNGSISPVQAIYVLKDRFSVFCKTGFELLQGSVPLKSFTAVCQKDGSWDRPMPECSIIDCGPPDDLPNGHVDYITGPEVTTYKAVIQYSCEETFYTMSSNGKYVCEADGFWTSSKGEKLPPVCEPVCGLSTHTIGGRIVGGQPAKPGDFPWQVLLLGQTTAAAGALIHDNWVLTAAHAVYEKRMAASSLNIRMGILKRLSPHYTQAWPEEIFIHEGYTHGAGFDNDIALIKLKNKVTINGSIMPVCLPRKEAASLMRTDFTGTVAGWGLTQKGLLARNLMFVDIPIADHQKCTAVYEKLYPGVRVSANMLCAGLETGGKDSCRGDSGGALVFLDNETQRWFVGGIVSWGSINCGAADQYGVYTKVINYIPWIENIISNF
- ASSAY_EXPLANATION: Enzymatic inhibition of mMASP-2
- Type: biochemical
- CONDITION_DESCRIPTION: read-out: mMASP-2 Ki
Counter-ions that a name gives are not always drawn.

Here's what some known entries look like.
COMPOUND | OBSERVED_MEASUREMENT
Cc1nc(N)ccc1CNC(=O)[C@H](C)NC(=O)[C@H]1C[C@H](Cc2ccc(F)c(Cl)c2)CN1CCC(=O)O [compound 1473, Trifluoroacetate salt] | < 500 nM
Cc1[nH]c(C(=O)N[C@@H](C)C(=O)NCc2ccc(C(=N)N)cc2)cc1-c1ccccc1 | < 500 nM
C[C@H](NC(=O)[C@H](N)CCc1ccccc1)C(=O)NCc1cc(Cl)ccc1-n1cncn1 | > 25000 nM
C[C@H](NC(=O)[C@@H](CCc1ccccc1)NCc1ccc(OCCO)cc1)C(=O)NCc1ccc(C(=N)N)cc1 | < 500 nM
Cc1nc(N)ccc1CNC(=O)[C@H](C)NC(=O)[C@H]1C[C@H](Cc2ccccc2-c2ccccc2)CN1 [compound 1373, Di-trifluoroacetate salt] | < 500 nM
Cc1nc(N)ccc1CNC(=O)[C@H](C)NC(=O)[C@@H](CCc1ccccc1)NCc1ccc(Cl)cc1 | 10000 to 25000 nM
Cc1nc(N)ccc1CNC(=O)[C@H](C)NC(=O)[C@H]1C[C@H](Cc2ccc(Cl)c(Cl)c2)CN1 [compound 1422, Dihydrochloride] | < 500 nM
Cc1nc(N)ccc1CNC(=O)[C@H](C)NC(=O)[C@H]1C[C@H](Cc2ccc(-c3nccs3)cc2)CN1 [compound 1361, Di-trifluoroacetate salt] | < 500 nM

I would be grateful if you could share the reported Ki for C[C@H](NC(=O)[C@H](N)CCc1ccccc1)C(=O)NCc1cc(Br)ccc1O .
> 25000 nM

I would be grateful if you could share the reported Ki for Cc1nc(N)ccc1CNC(=O)[C@H](C)NC(=O)[C@H]1C[C@H](Cc2ccc(Cl)c(Br)c2)CN1 [compound 1451, Di-trifluoroacetate salt] .
< 500 nM

I would be grateful if you could share the reported Ki for C[C@H](NC(=O)[C@H](CCc1ccccc1)NCc1c[nH]c2ccccc12)C(=O)NCc1ccc(C(=N)N)cc1 .
< 500 nM

I would be grateful if you could share the reported Ki for C[C@H](NC(=O)[C@H]1C[C@H](Cc2ccccc2)CN1)C(=O)NCc1cc(Cl)ccc1-n1cnnn1 [compound 1371, Hydrochloride] .
500 to 2500 nM

I would be grateful if you could share the reported Ki for CC(=O)Nc1ccc(CCN[C@H](CCc2ccccc2)C(=O)N[C@@H](C)C(=O)NCc2ccc(N)nc2C)cc1 [compound 1368, Dihydrochloride] .
10000 to 25000 nM

I would be grateful if you could share the reported Ki for C[C@H](NC(=O)[C@H](N)CCc1ccccc1)C(=O)NCCc1ccc(N)nc1 [compound 1015, Dihydrochloride] .
< 25000 nM

====

- ASSAY_SYSTEM: mMASP-2 (Mus musculus (Mouse))
- ASSAY_EXPLANATION: Enzymatic inhibition of mMASP-2
- Type: biochemical
- CONDITION_DESCRIPTION: read-out: mMASP-2 Ki
Where a name gives a salt, the structure may show the parent alone.
Catalogue of Ki values

MOLECULE | Ki
C[C@H](NC(=O)[C@@H](CCc1ccccc1)NCCc1ccc(O)cc1)C(=O)NCc1ccc(C(=N)N)cc1 [compound 1327, dihydrochloride] | < 500 nM
Cc1nc(N)ccc1CNC(=O)[C@H](C)NC(=O)[C@H]1C[C@H](Cc2cccc(Cl)c2)CN1 [compound 1328, Dihydrochloride] | < 500 nM

Next molecule, please.
I would be grateful if you could share the reported Ki for C[C@H](NC(=O)[C@H]1C[C@H](c2ccccc2)CN1)C(=O)NCc1cc(Cl)ccc1-n1ncnn1 [compound 1394, Trifluoroacetate] .
> 25000 nM
